Numbers sourced from paper PMC10398685.

Experiment: Microsomal stability, mouse
Type: in vitro ADME
Conditions: 0.5 mg/ml mouse microsomes, 5uM, triplicates
OUTCOME MEASURE: Microsomal stability Rem. at 45 min (%)
# value in %; strip the unit string

Consider the following illustrative entries.
Which Microsomal stability Rem. at 45 min is listed for COc1ccc(S(=O)(=O)N(C)C[C@H]2O[C@@H](n3cc(C#Cc4cccnc4)c4c(N)ncnc43)[C@H](O)[C@@H]2O)cc1C#N [Compound 12s] ? 50.2

Which Microsomal stability Rem. at 45 min is listed for COc1ccc(S(=O)(=O)N(C)C[C@H]2O[C@@H](n3cc(C#Cc4cnc5ccccc5c4)c4c(N)ncnc43)[C@H](O)[C@@H]2O)cc1C#N [Compound 12q] ? 101.0

// next entry
Which Microsomal stability Rem. at 45 min is listed for COc1ccc(S(=O)(=O)N(C)C[C@H]2O[C@@H](n3cc(C#Cc4ccc(C(N)=O)cc4)c4c(N)ncnc43)[C@H](O)[C@@H]2O)cc1C#N [Compound 12r] ? 80.9
